experimentalSystem: LXRα full length (FL) (Homo sapiens, UniProt Q13133)
Construct: the full length (FL) proteins of LXRα (amino acids 1-447); NP005684
Sequence (Q13133 whole entry, the tested form may be a part): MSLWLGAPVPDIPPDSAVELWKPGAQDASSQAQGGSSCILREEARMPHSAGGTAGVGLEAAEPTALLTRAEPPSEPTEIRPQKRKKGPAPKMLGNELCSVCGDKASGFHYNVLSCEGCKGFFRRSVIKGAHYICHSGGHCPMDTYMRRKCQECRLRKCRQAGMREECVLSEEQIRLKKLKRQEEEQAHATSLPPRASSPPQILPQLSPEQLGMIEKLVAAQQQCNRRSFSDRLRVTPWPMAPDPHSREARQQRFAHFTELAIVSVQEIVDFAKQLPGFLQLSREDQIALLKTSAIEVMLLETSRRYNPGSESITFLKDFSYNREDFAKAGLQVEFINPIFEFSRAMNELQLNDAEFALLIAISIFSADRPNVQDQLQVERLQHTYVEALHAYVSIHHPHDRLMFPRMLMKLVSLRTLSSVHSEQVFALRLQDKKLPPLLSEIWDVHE
method: LXR Gal4 reporter transient transfection assay, mammalian two-hybrid, FL-M2H Gal4α
testParameters: HEK293 cells; inverse agonist unless *
Catalogue of EC50 readings, one per entry.
readoutKind: EC50

[[record]]
compound = "Cc1ccc2ccccc2c1C(=O)N(Cc1ccc(-c2cccc(S(=O)(=O)CC(=O)NS(C)(=O)=O)c2)cc1)Cc1ccc(C(F)(F)F)o1 [5/4]"
experimentalsystem = "LXRα full length (FL) (Homo sapiens, UniProt Q13133)"
reportedmeasurement = "1000 to 10000 nM"

[[record]]
compound = "Cc1cc(C)c(CN(Cc2ccc(-c3cccc(S(=O)(=O)CC(=O)O)c3)cc2)C(C)c2ccc(C(F)(F)F)o2)c(C)c1 (centres unmarked) [7/12]"
experimentalsystem = "LXRα full length (FL) (Homo sapiens, UniProt Q13133)"
reportedmeasurement = "100 to 1000 nM"

[[record]]
compound = "COc1cc(-c2cccc(C(C)(C)C(=O)O)c2)ccc1CN(Cc1ccc(C(F)(F)F)o1)C(=O)c1c(C)ccc2ccccc12 [27/66]"
experimentalsystem = "LXRα full length (FL) (Homo sapiens, UniProt Q13133)"
reportedmeasurement = "< 100 nM"

[[record]]
compound = "CC(C)(C(=O)O)c1cccc(-c2ccc(CN(Cc3ccc(C(F)(F)F)o3)C(=O)c3c4ccccc4cc4ccccc34)cc2)c1 [27/47]"
experimentalsystem = "LXRα full length (FL) (Homo sapiens, UniProt Q13133)"
reportedmeasurement = "< 100 nM"

[[record]]
compound = "COc1cc(-c2cc(F)c(CO)c(S(=O)(=O)CC(=O)O)c2)ccc1CN(Cc1ccc(C(F)(F)F)o1)Cc1c(C)ccc2ccccc12 [22/9]"
experimentalsystem = "LXRα full length (FL) (Homo sapiens, UniProt Q13133)"
reportedmeasurement = "100 to 1000 nM"

[[record]]
compound = "Cc1cnc2cccnc2c1C(=O)N(Cc1ccc(C(F)(F)F)o1)Cc1ccc(-c2cccc(C(C)(C)C(=O)O)c2)cc1Cl [27/115]"
experimentalsystem = "LXRα full length (FL) (Homo sapiens, UniProt Q13133)"
reportedmeasurement = "< 100 nM"

[[record]]
compound = "Cc1nc2ccccc2c(C(=O)N(Cc2ccc(C(F)(F)F)o2)Cc2ncc(-c3cccc(C(C)C(=O)O)c3)cc2Cl)c1C (centres unmarked) [27/90]"
experimentalsystem = "LXRα full length (FL) (Homo sapiens, UniProt Q13133)"
reportedmeasurement = "< 100 nM"

[[record]]
compound = "Cc1ccc2ncnn2c1C(=O)N(Cc1ccc(-c2cccc(C(C)(C)C(=O)O)c2)cc1)Cc1ccc(C(F)(F)F)o1 [27/121]"
experimentalsystem = "LXRα full length (FL) (Homo sapiens, UniProt Q13133)"
reportedmeasurement = "< 100 nM"

[[record]]
compound = "Cc1nc2ccccc2c(C(=O)N(Cc2ccc(C(=O)N(C)C)o2)Cc2ncc(-c3cccc(C(C)C(=O)O)c3)cc2Cl)c1C (centres unmarked) [27/100]"
experimentalsystem = "LXRα full length (FL) (Homo sapiens, UniProt Q13133)"
reportedmeasurement = "1000 to 10000 nM"

[[record]]
compound = "O=C(O)CS(=O)(=O)c1cccc(-c2ccc(CN(Cc3ccc(C(F)(F)F)o3)C(=O)c3c(OC(F)F)ccc4ccccc34)cc2)c1 [27/42]"
experimentalsystem = "LXRα full length (FL) (Homo sapiens, UniProt Q13133)"
reportedmeasurement = "1000 to 10000 nM"

[[record]]
compound = "CC1CCc2ccccc2N1C(=O)N(Cc1ccc(-c2cccc(C(C)(C)C(=O)O)c2)cc1)Cc1ccc(C(F)(F)F)o1 (centres unmarked) [27/96]"
experimentalsystem = "LXRα full length (FL) (Homo sapiens, UniProt Q13133)"
reportedmeasurement = "< 100 nM"

[[record]]
compound = "Cc1ccc2ccccc2c1C(=O)N(Cc1ccc(-c2cccc([C@H](C)C(=O)O)c2)cc1)Cc1ccc(C(F)(F)F)o1 [10/6]"
experimentalsystem = "LXRα full length (FL) (Homo sapiens, UniProt Q13133)"
reportedmeasurement = "< 100 nM"

[[record]]
compound = "Cc1ccc(CN(Cc2ccc(-c3cccc(C(C)(C)C(=O)O)c3)cc2)C(=O)c2c(C)c(C)nc3cccnc23)o1 [27/132]"
experimentalsystem = "LXRα full length (FL) (Homo sapiens, UniProt Q13133)"
reportedmeasurement = "100 to 1000 nM"

[[record]]
compound = "Cc1ccc2ccccc2c1CN(Cc1ccc(-c2cccc([C@H](C)C(=O)O)c2)cc1)Cc1ccc(C(F)(F)F)o1 [27/73]"
experimentalsystem = "LXRα full length (FL) (Homo sapiens, UniProt Q13133)"
reportedmeasurement = "< 100 nM"


====

experimentalSystem: GST-LXRβ ligand-binding domain (Homo sapiens, UniProt P55055, INS174Q)
Construct: amino acids 156-461; NP009052; made in house; host or cells: E. coli
Sequence (P55055 with tags, fused parts or gaps INS174Q limits assumed): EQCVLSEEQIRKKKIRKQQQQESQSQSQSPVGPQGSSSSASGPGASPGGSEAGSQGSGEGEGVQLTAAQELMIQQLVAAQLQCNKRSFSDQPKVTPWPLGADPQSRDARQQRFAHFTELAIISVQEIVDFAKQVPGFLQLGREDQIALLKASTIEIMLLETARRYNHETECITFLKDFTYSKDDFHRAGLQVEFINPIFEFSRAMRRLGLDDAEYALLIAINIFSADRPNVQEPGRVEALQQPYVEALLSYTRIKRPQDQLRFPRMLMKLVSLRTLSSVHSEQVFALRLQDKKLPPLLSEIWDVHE
method: TR-FRETβ activity assay (NCoA3 coactivator peptide recruitment)
Format: biochemical
testParameters: 1 μM 24(S)-25-epoxycholesterol as prestimulating agonist; inverse agonist unless *
readoutKind: FRETβ

[[record]]
compound = "O=C(O)CS(=O)(=O)c1cccc(-c2ccc(CN(Cc3ccc(C(F)(F)F)o3)Cc3ccc(F)c4cccnc34)cc2)c1 [7/3]"
readoutkind = "FRETβ"
reportedmeasurement = "B*"

[[record]]
compound = "CC(C)(C(=O)O)c1cccc(-c2ccc(CN(Cc3ccc(C(F)(F)F)o3)C(=O)C3C(C)(C)CCC3(C)C)cc2)c1 [27/97]"
readoutkind = "FRETβ"
reportedmeasurement = "C*"

[[record]]
compound = "CC(C)(C(=O)O)c1cccc(-c2ccc(CN(Cc3ccc(C(F)(F)F)o3)Cc3cccc4nonc34)cc2)c1 [25/1]"
readoutkind = "FRETβ"
reportedmeasurement = "B*"

[[record]]
compound = "CC(C)(C(=O)O)c1cccc(-c2ccc(CN(Cc3ccc(C(F)(F)F)o3)C(=O)C34CC5CC(CC(C5)C3)C4)cc2)c1 [27/56]"
readoutkind = "FRETβ"
reportedmeasurement = "B*"

[[record]]
compound = "CC12CC3(C)CC(C)(C1)CC(C(=O)N(Cc1ccc(-c4cccc(C(C)(C)C(=O)O)c4)cc1)Cc1ccc(C(F)(F)F)o1)(C2)C3 [27/51]"
readoutkind = "FRETβ"
reportedmeasurement = "B*"

[[record]]
compound = "Cc1nc2ccccc2c(CN(Cc2ccc(-c3cccc(C(C)(C)C(=O)O)c3)cc2)Cc2ccc(C(F)(F)F)o2)c1C [24/5]"
readoutkind = "FRETβ"
reportedmeasurement = "D*"

[[record]]
compound = "Cc1nc2cccnc2c(CN(Cc2ccc(-c3cccc(C(C)(C)C(=O)O)c3)cc2)Cc2ccc(C(F)(F)F)o2)c1C [27/133]"
readoutkind = "FRETβ"
reportedmeasurement = "C*"


====

Measured EC50 accompanies every entry in the list below.
experimentalSystem: LXRα full length (FL) (Homo sapiens, UniProt Q13133)
Construct: the full length (FL) proteins of LXRα (amino acids 1-447); NP005684
method: LXR Gal4 reporter transient transfection assay, mammalian two-hybrid, FL-M2H Gal4α
testParameters: HEK293 cells; inverse agonist unless *
readoutKind: EC50

[[record]]
molecule = "Cc1nc2ncccn2c1C(=O)N(Cc1ccc(-c2cccc(C(C)(C)C(=O)O)c2)cc1)Cc1ccc(C(F)(F)F)o1 [27/117]"
readoutkind = "EC50"
reportedmeasurement = "1 to 10 µM"

[[record]]
molecule = "Cc1ccc2ccccc2c1C(=O)N(Cc1ccc(C(F)(F)F)o1)C1COc2cc(-c3cccc(C(C)(C)C(=O)O)c3)ccc21 (stereo not shown) [27/4]"
readoutkind = "EC50"
reportedmeasurement = "0.1 to 1 µM"

[[record]]
molecule = "Cc1ccc2c(CN(Cc3ccc(-c4cccc(C(C)(C)C(=O)O)c4)cc3)Cc3ccc(C(F)(F)F)o3)c(C)ccc2c1 [27/21]"
readoutkind = "EC50"
reportedmeasurement = "< 0.1 µM"

[[record]]
molecule = "Cc1cc(C)c(CN(Cc2ccc(-c3cccc(S(=O)(=O)CC(=O)O)c3)cc2)Cc2ccc(C(F)(F)F)o2)c(C)c1C [27/34]"
readoutkind = "EC50"
reportedmeasurement = "1 to 10 µM"


====

experimentalSystem: LXRβ ligand-binding domain (LBD) (Homo sapiens, UniProt P55055, INS174Q)
Construct: or LXR (amino acids 156-461)
Sequence (P55055 with tags, fused parts or gaps INS174Q limits assumed): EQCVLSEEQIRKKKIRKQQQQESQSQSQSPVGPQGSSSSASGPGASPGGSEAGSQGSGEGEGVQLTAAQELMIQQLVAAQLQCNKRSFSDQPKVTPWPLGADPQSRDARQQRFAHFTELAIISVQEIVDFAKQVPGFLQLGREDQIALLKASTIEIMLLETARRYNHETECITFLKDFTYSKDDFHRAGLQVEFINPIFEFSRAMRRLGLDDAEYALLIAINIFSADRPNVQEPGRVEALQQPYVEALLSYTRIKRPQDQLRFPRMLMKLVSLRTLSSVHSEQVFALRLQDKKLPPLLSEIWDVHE
method: LXR Gal4 reporter transient transfection assay, mammalian two-hybrid, LBD-M2H Gal4β
testParameters: HEK293 cells; inverse agonist unless *
pEC50: −log10 of the molar value.
readoutKind: pEC50

[[record]]
molecule = "Cc1ccc2ccccc2c1CN(Cc1ccc(-c2cccc(CC(C)(C)C(=O)O)c2)cc1)Cc1ccc(C(F)(F)F)o1"
reportedmeasurement = "> 7.00"

[[record]]
molecule = "COc1cc(-c2cccc(C(C)(C)C(=O)O)c2)ccc1CN(Cc1ccc(C(F)(F)F)o1)Cc1c(C)cc(C)cc1C"
reportedmeasurement = "> 7.00"

[[record]]
molecule = "Cc1ccc2ccccc2c1CN(Cc1ccc(C(F)(F)F)o1)Cc1ccc(-c2cccc(C(C)(C)C(=O)O)c2)c2nccn12"
reportedmeasurement = "> 7.00"

[[record]]
molecule = "Cc1ccc2ccccc2c1CN(Cc1ccc(-c2cccc(C(C)(C)C(=O)O)n2)cc1)Cc1ccc(C(F)(F)F)o1"
reportedmeasurement = "> 7.00"

[[record]]
molecule = "Cc1cc(C)c(C(=O)N(Cc2ccc(-c3cccc(CCC(=O)O)c3)cc2)Cc2ccc(C(F)(F)F)o2)c(C)c1"
reportedmeasurement = "> 7.00"

[[record]]
molecule = "Cc1nc2ccccc2nc1CN(Cc1ccc(-c2cccc(C(C)(C)C(=O)O)c2)cc1)Cc1ccc(C(F)(F)F)o1"
reportedmeasurement = "6.00 to 7.00"

[[record]]
molecule = "Cc1cc(C)c(CN(Cc2ccc(-c3cccc(S(=O)(=O)CC(=O)O)c3)cc2)Cc2ccc(C(F)(F)F)o2)c(C)c1"
reportedmeasurement = "6.00 to 7.00"

[[record]]
molecule = "CC(C)(C(=O)O)c1cccc(-c2ccc(CN(Cc3ccc(C(F)(F)F)o3)Cc3cccc4c3OC(F)(F)O4)cc2)c1"
reportedmeasurement = "> 7.00"

[[record]]
molecule = "CC(C)(C(=O)O)c1cccc(-c2ccc(CN(Cc3ccc(C(F)(F)F)o3)Cc3cccc4nonc34)cc2)c1"
reportedmeasurement = "> 7.00"

[[record]]
molecule = "CC(C)(C(=O)O)c1cccc(-c2ccc(CN(Cc3ccc(C(F)(F)F)o3)Cc3c(C(F)F)ccc4ccccc34)cc2)c1"
reportedmeasurement = "> 7.00"

[[record]]
molecule = "Cc1nc2ccccc2c(CN(Cc2ccc(-c3cccc(C(C)(C)C(=O)O)c3)cc2)Cc2ccc(C(F)(F)F)o2)c1C"
reportedmeasurement = "> 7.00"

[[record]]
molecule = "CC(c1cccc2ccccc12)N(Cc1ccc(-c2cccc(S(=O)(=O)CC(=O)O)c2)cc1)Cc1ccc(C(F)(F)F)o1 (stereo not shown)"
reportedmeasurement = "> 7.00"

[[record]]
molecule = "COc1cc(-c2cccc(C(C)(C)C(=O)O)c2)cnc1CN(Cc1ccc(C(F)(F)F)o1)Cc1c(C)ccc2ccccc12"
reportedmeasurement = "> 7.00"

[[record]]
molecule = "Cc1ccc2ccccc2c1CN(Cc1ccc(-c2ccnc(C(C)(C)C(=O)O)c2)cc1)Cc1ccc(C(F)(F)F)o1"
reportedmeasurement = "> 7.00"

[[record]]
molecule = "Cc1ccc2ccccc2c1CN(Cc1ccc(-c2cc(C(C)(C)C(=O)O)ccn2)cc1)Cc1ccc(C(F)(F)F)o1"
reportedmeasurement = "> 7.00"

[[record]]
molecule = "CC(C)(C(=O)O)c1cccc(-c2ccc(CN(Cc3ccc(C(F)(F)F)o3)C(=O)C34CC5CC(CC(C5)C3)C4)cc2)c1"
reportedmeasurement = "> 7.00"

[[record]]
molecule = "Cc1ncc2ccccc2c1CN(Cc1ccc(-c2cccc(C(C)(C)C(=O)O)c2)cc1)Cc1ccc(C(F)(F)F)o1"
reportedmeasurement = "> 7.00"

[[record]]
molecule = "Cc1cc(C)c(C(=O)N(Cc2ccc(-c3cccc(S(=O)(=O)CC(=O)O)c3)cc2)Cc2ccc(C(F)(F)F)o2)c(C)c1"
reportedmeasurement = "6.00 to 7.00"

[[record]]
molecule = "COc1cc(CN(Cc2ccc(C(F)(F)F)o2)Cc2c(C)ccc3ccccc23)ccc1-c1cccc(C(C)(C)C(=O)O)c1"
reportedmeasurement = "6.00 to 7.00"

[[record]]
molecule = "Cc1ccc(CN(Cc2ccc(-c3cccc(C(C)(C)C(=O)O)c3)cc2)Cc2ccc(C(F)(F)F)o2)c2ccccc12"
reportedmeasurement = "> 7.00"

[[record]]
molecule = "COC(=O)CS(=O)(=O)c1cc(-c2ccc(CN(Cc3ccc(C(F)(F)F)o3)Cc3c(C)cc(C)cc3C)cc2)cc(F)c1CO"
reportedmeasurement = "> 7.00"

[[record]]
molecule = "Cc1ccc2ccccc2c1CN(Cc1ccc(-c2cccc(C(C)(C)C(=O)O)c2)cc1)Cc1ccc(C(F)(F)F)o1"
reportedmeasurement = "> 7.00"

[[record]]
molecule = "Cc1cc(C)c(CN(Cc2ccc(C(F)(F)F)o2)Cc2ccc(-c3cccc(S(=O)(=O)CC(=O)O)c3)cc2Cl)c(C)c1"
reportedmeasurement = "6.00 to 7.00"

[[record]]
molecule = "CC(C)(C(=O)O)c1cccc(-c2ccc(CN(Cc3ccc(C(F)(F)F)o3)Cc3c(OC(F)F)ccc4ccccc34)cc2)c1"
reportedmeasurement = "> 7.00"

[[record]]
molecule = "Cc1ccc2ncccc2c1CN(Cc1ccc(-c2cccc(C(C)(C)C(=O)O)c2)cc1)Cc1ccc(C(F)(F)F)o1"
reportedmeasurement = "> 7.00"

